Measured MIC, listed per entry for reference.
- Test system: Mycolicibacterium smegmatis
- run description: Antibacterial activity against Mycobacterium smegmatis ATCC 607
- Format: functional
metric: MIC (µg/mL)

1. CCCCOc1ccc(NC(=O)C2=CCN(C)[C@@H]([C@H](O[C@@H]3O[C@H](CN)[C@@H](O)[C@H]3O)[C@H]3O[C@@H](n4ccc(=O)[nH]c4=O)[C@H](O)[C@@H]3O)C(=O)N2C)cc1 : 25
2. CCCCCCCCCCNC(=O)C1=CCN(C)[C@@H]([C@H](O[C@@H]2O[C@H](CN)[C@@H](O)[C@H]2O)[C@H]2O[C@@H](n3ccc(=O)[nH]c3=O)[C@H](O)[C@@H]2O)C(=O)N1C : 6.25
3. CCCCCCCCCCCCCCCCCCCCCNC(=O)C1=CCN(C)[C@@H]([C@H](O[C@@H]2O[C@H](CN)[C@@H](O)[C@H]2O)[C@H]2O[C@@H](n3ccc(=O)[nH]c3=O)[C@H](O)[C@@H]2O)C(=O)N1C : 6.25
4. CCCCCCCCCCCCCNC(=O)C1=CCN(C)[C@@H]([C@H](O[C@@H]2O[C@H](CN)[C@@H](O)[C@H]2O)[C@H]2O[C@@H](n3ccc(=O)[nH]c3=O)[C@H](O)[C@@H]2O)C(=O)N1C : 0.39
5. CCCCCCCCCCCCCCc1ccc(NC(=O)C2=CCN(C)[C@@H]([C@H](O[C@@H]3O[C@H](CN)[C@@H](O)[C@H]3O)[C@H]3O[C@@H](n4ccc(=O)[nH]c4=O)[C@H](O)[C@@H]3O)C(=O)N2C)cc1 : 6.25
6. CCCCCCCCCCCCCOC(=O)C1=CCN(C)[C@@H]([C@H](O[C@@H]2O[C@H](CN)[C@@H](O)[C@H]2O)[C@H]2O[C@@H](n3ccc(=O)[nH]c3=O)[C@H](O)[C@@H]2O)C(=O)N1C : 6.25
7. CCCCCCCCCCCCCCCCCCNC(=O)C1=CCN(C)[C@@H]([C@H](O[C@@H]2O[C@H](CN)[C@@H](O)[C@H]2O)[C@H]2O[C@@H](n3ccc(=O)[nH]c3=O)[C@H](O)[C@@H]2O)C(=O)N1C : 6.25
8. CCCCCCCCCCOC(=O)C1=CCN(C)[C@@H]([C@H](O[C@@H]2O[C@H](CN)[C@@H](O)[C@H]2O)[C@H]2O[C@@H](n3ccc(=O)[nH]c3=O)[C@H](O)[C@@H]2O)C(=O)N1C : 50
9. CCCCCCCC/C=C/CCCCCCCCNC(=O)C1=CCN(C)[C@@H]([C@H](O[C@@H]2O[C@H](CN)[C@@H](O)[C@H]2O)[C@H]2O[C@@H](n3ccc(=O)[nH]c3=O)[C@H](O)[C@@H]2O)C(=O)N1C : 1.56
10. CCCCCCCCNC(=O)C1=CCN(C)[C@@H]([C@H](O[C@@H]2O[C@H](CN)[C@@H](O)[C@H]2O)[C@H]2O[C@@H](n3ccc(=O)[nH]c3=O)[C@H](O)[C@@H]2O)C(=O)N1C : 6.25
11. CCCCCCCCCCCCCCNC(=O)C1=CCN(C)[C@@H]([C@H](O[C@@H]2O[C@H](CN)[C@@H](O)[C@H]2O)[C@H]2O[C@@H](n3ccc(=O)[nH]c3=O)[C@H](O)[C@@H]2O)C(=O)N1C : 1.56
12. CCCCCCCCCCCCNC(=O)C1=CCN(C)[C@@H]([C@H](O[C@@H]2O[C@H](CN)[C@@H](O)[C@H]2O)[C@H]2O[C@@H](n3ccc(=O)[nH]c3=O)[C@H](O)[C@@H]2O)C(=O)N1C : 0.39
13. CCCCCNC(=O)C1=CCN(C)[C@@H]([C@H](O[C@@H]2O[C@H](CN)[C@@H](O)[C@H]2O)[C@H]2O[C@@H](n3ccc(=O)[nH]c3=O)[C@H](O)[C@@H]2O)C(=O)N1C : 100
14. CCCCCCCNC(=O)C1=CCN(C)[C@@H]([C@H](O[C@@H]2O[C@H](CN)[C@@H](O)[C@H]2O)[C@H]2O[C@@H](n3ccc(=O)[nH]c3=O)[C@H](O)[C@@H]2O)C(=O)N1C : 25
15. CCCCCCNC(=O)C1=CCN(C)[C@@H]([C@H](O[C@@H]2O[C@H](CN)[C@@H](O)[C@H]2O)[C@H]2O[C@@H](n3ccc(=O)[nH]c3=O)[C@H](O)[C@@H]2O)C(=O)N1C : 50

###

- System: Enterococcus faecium
- run description: Antibacterial activity against t Enterococcus faecium VRE after 20 hrs by NCCLS-based two-fold broth dilution method
- Assay type: functional
- stated conditions: read-out: MIC
metric: MIC (µg/mL)

1) CCCCCCCCCCCCCCCC(=O)N[C@H]1CCN[C@H]([C@H](O[C@@H]2O[C@H](CN)[C@@H](O)[C@H]2O)[C@H]2O[C@@H](n3ccc(=O)[nH]c3=O)[C@H](O)[C@@H]2O)C1 : 4
2) CCCCCCCCCCCCCCCCC[C@@H]1CN[C@@H]([C@H](O[C@@H]2O[C@H](CN)[C@@H](O)[C@H]2O)[C@H]2O[C@@H](n3ccc(=O)[nH]c3=O)[C@H](O)[C@@H]2O)C(=O)N(C)[C@@H]1C(=O)O : 8
3) CCCCCCCCCCCCCCCC(=O)N[C@H]1CCN[C@H]([C@@H](O[C@@H]2O[C@H](CN)[C@@H](O)[C@H]2O)[C@H]2O[C@@H](n3ccc(=O)[nH]c3=O)[C@H](O)[C@@H]2O)C1 : 8
4) CCCCCCCCCCCCCCCC(=O)N[C@@H]1CCN[C@@H]([C@@H](O[C@@H]2O[C@H](CN)[C@@H](O)[C@H]2O)[C@H]2O[C@@H](n3ccc(=O)[nH]c3=O)[C@H](O)[C@@H]2O)C1 : 16
5) CCCCCCCCCCCCCCCC(=O)N[C@@H]1CCN[C@@H]([C@H](O[C@@H]2O[C@H](CN)[C@@H](O)[C@H]2O)[C@H]2O[C@@H](n3ccc(=O)[nH]c3=O)[C@H](O)[C@@H]2O)C1 : 8
6) CCCCCCCCCCCCCC(=O)N[C@@H]1CCN[C@@H]([C@H](O[C@@H]2O[C@H](CN)[C@@H](O)[C@H]2O)[C@H]2O[C@@H](n3ccc(=O)[nH]c3=O)[C@H](O)[C@@H]2O)C1 : 8

###

Here the recorded MIC is given for each entry.
- System: Escherichia coli
- run description: Antibacterial activity against Escherichia coli K-12
- Format: functional
metric: MIC

1. CCCCCCCNC(=O)C1=CCN(C)[C@@H]([C@H](O[C@@H]2O[C@H](CN)[C@@H](O)[C@H]2O)[C@H]2O[C@@H](n3ccc(=O)[nH]c3=O)[C@H](O)[C@@H]2O)C(=O)N1C : > 100 µg/mL
2. CCCCCCCOc1ccc(NC(=O)C2=CCN(C)[C@@H]([C@H](O[C@@H]3O[C@H](CN)[C@@H](O)[C@H]3O)[C@H]3O[C@@H](n4ccc(=O)[nH]c4=O)[C@H](O)[C@@H]3O)C(=O)N2C)cc1 : 3.13 µg/mL
3. CCCCCCNC(=O)C1=CCN(C)[C@@H]([C@H](O[C@@H]2O[C@H](CN)[C@@H](O)[C@H]2O)[C@H]2O[C@@H](n3ccc(=O)[nH]c3=O)[C@H](O)[C@@H]2O)C(=O)N1C : > 100 µg/mL
4. CCCCc1ccc(NC(=O)C2=CCN[C@@H]([C@H](O[C@@H]3O[C@H](CN)[C@@H](O)[C@H]3O)[C@H]3O[C@@H](n4ccc(=O)[nH]c4=O)[C@H](O)[C@@H]3O)C(=O)N2C)cc1 : > 100 µg/mL
5. CCCCCCCCCCCCNC(=O)C1=CCN(C)[C@@H]([C@H](O[C@@H]2O[C@H](CN)[C@@H](O)[C@H]2O)[C@H]2O[C@@H](n3ccc(=O)[nH]c3=O)[C@H](O)[C@@H]2O)C(=O)N1C : 100 µg/mL
6. CCCCCCCCCCCCCCCCCCNC(=O)C1=CCN(C)[C@@H]([C@H](O[C@@H]2O[C@H](CN)[C@@H](O)[C@H]2O)[C@H]2O[C@@H](n3ccc(=O)[nH]c3=O)[C@H](O)[C@@H]2O)C(=O)N1C : > 100 µg/mL
7. CCCCCCCCCCCCCCc1ccc(NC(=O)C2=CCN(C)[C@@H]([C@H](O[C@@H]3O[C@H](CN)[C@@H](O)[C@H]3O)[C@H]3O[C@@H](n4ccc(=O)[nH]c4=O)[C@H](O)[C@@H]3O)C(=O)N2C)cc1 : > 100 µg/mL
8. CN1C(=O)[C@H]([C@H](O[C@@H]2O[C@H](CN)[C@@H](O)[C@H]2O)[C@H]2O[C@@H](n3ccc(=O)[nH]c3=O)[C@H](O)[C@@H]2O)N(C)CC=C1C(=O)NC1CCCCCCCCCCC1 : > 100 µg/mL
9. CCCCCCCCCCCCCCCCCCOC(=O)C1=CCN(C)[C@@H]([C@H](O[C@@H]2O[C@H](CN)[C@@H](O)[C@H]2O)[C@H]2O[C@@H](n3ccc(=O)[nH]c3=O)[C@H](O)[C@@H]2O)C(=O)N1C : > 100 µg/mL
10. CCCCOc1ccc(NC(=O)C2=CCN(C)[C@@H]([C@H](O[C@@H]3O[C@H](CN)[C@@H](O)[C@H]3O)[C@H]3O[C@@H](n4ccc(=O)[nH]c4=O)[C@H](O)[C@@H]3O)C(=O)N2C)cc1 : > 100 µg/mL
11. CCCCCCCCNC(=O)C1=CCN(C)[C@@H]([C@H](O[C@@H]2O[C@H](CN)[C@@H](O)[C@H]2O)[C@H]2O[C@@H](n3ccc(=O)[nH]c3=O)[C@H](O)[C@@H]2O)C(=O)N1C : > 100 µg/mL
12. CCCCCCCCCCCCCCCCCCCNC(=O)C1=CCN(C)[C@@H]([C@H](O[C@@H]2O[C@H](CN)[C@@H](O)[C@H]2O)[C@H]2O[C@@H](n3ccc(=O)[nH]c3=O)[C@H](O)[C@@H]2O)C(=O)N1C : > 100 µg/mL
13. CN1C(=O)[C@H]([C@H](O[C@@H]2O[C@H](CN)[C@@H](O)[C@H]2O)[C@H]2O[C@@H](n3ccc(=O)[nH]c3=O)[C@H](O)[C@@H]2O)N(C)CC=C1C(=O)Nc1ccc(C2CCCCC2)cc1 : 6.25 µg/mL
14. CCCCCNC(=O)C1=CCN(C)[C@@H]([C@H](O[C@@H]2O[C@H](CN)[C@@H](O)[C@H]2O)[C@H]2O[C@@H](n3ccc(=O)[nH]c3=O)[C@H](O)[C@@H]2O)C(=O)N1C : > 100 µg/mL
15. CCCCCCCCCCCCCNC(=O)C1=CCN(C)[C@@H]([C@H](O[C@@H]2O[C@H](CN)[C@@H](O)[C@H]2O)[C@H]2O[C@@H](n3ccc(=O)[nH]c3=O)[C@H](O)[C@@H]2O)C(=O)N1C : 100 µg/mL
16. CCCCCCCCCCNC(=O)C1=CCN(C)[C@@H]([C@H](O[C@@H]2O[C@H](CN)[C@@H](O)[C@H]2O)[C@H]2O[C@@H](n3ccc(=O)[nH]c3=O)[C@H](O)[C@@H]2O)C(=O)N1C : > 100 µg/mL
17. CCCCCCCCCCCNC(=O)C1=CCN(C)[C@@H]([C@H](O[C@@H]2O[C@H](CN)[C@@H](O)[C@H]2O)[C@H]2O[C@@H](n3ccc(=O)[nH]c3=O)[C@H](O)[C@@H]2O)C(=O)N1C : > 100 µg/mL
18. CCCCCCCCCCCCCCCNC(=O)C1=CCN(C)[C@@H]([C@H](O[C@@H]2O[C@H](CN)[C@@H](O)[C@H]2O)[C@H]2O[C@@H](n3ccc(=O)[nH]c3=O)[C@H](O)[C@@H]2O)C(=O)N1C : 1.56 µg/mL
